- System: recombinant guanylate cyclase reporter cell line (Rattus norvegicus, UniProt P19686+P20595)
- Construct: expressed in transfected cells
- Sequence (P19686 whole entry): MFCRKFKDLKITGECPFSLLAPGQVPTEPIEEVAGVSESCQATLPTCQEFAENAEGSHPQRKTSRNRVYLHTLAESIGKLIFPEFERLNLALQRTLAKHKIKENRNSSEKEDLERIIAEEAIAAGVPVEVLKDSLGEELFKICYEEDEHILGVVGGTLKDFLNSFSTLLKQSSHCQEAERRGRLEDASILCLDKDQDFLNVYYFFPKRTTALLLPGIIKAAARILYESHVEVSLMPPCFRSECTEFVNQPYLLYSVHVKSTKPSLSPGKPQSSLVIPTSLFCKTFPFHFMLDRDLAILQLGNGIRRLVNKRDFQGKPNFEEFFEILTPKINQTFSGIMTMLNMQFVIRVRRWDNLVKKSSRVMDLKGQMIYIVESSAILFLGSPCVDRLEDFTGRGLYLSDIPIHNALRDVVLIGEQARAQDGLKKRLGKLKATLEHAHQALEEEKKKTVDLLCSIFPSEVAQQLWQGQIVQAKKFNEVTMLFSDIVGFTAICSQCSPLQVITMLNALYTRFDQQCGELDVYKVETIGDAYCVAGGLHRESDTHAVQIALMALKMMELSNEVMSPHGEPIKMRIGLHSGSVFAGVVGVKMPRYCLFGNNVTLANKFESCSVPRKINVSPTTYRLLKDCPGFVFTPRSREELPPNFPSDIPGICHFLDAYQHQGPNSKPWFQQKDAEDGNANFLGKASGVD
- Sequence (P20595 whole entry): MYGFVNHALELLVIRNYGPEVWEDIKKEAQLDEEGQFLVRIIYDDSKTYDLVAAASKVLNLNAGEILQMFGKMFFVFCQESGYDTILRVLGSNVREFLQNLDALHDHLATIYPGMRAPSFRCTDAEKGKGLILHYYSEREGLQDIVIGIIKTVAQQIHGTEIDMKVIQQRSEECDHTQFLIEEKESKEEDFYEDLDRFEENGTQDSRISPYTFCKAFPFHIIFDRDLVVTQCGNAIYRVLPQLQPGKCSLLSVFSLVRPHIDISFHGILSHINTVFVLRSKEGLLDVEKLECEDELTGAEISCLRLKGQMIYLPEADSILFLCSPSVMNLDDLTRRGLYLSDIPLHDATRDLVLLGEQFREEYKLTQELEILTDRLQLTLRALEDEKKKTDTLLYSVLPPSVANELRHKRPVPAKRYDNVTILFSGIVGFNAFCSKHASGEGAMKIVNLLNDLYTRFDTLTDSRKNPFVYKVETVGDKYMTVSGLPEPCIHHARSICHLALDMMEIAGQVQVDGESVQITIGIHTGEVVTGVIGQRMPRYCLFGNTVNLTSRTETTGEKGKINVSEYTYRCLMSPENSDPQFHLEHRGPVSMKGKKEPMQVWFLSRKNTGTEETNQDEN
- Protocol details: Effect on a recombinant guanylate cyclase reporter cell line (B-2)
- Assay type: cell-based
- Experimental context: MEC = minimum effective concentration, in some cases mean values for individual determinations
Parameter measured: MEC (µM)

1. Cc1nc2c(OCc3c(F)cccc3F)cccn2c1-c1nc(C#N)c2c(n1)NC(=O)C2(C)C [Example 48]	1
2. COCC(C)(N)CNc1nc(-c2c(C)nc3c(OCc4c(F)cccc4F)cccn23)nc2c1C(C)(C)C(=O)N2 (single isomer, unassigned; ent-4) [Example 46]	1
3. Cc1nc2c(OCc3c(F)cccc3F)cccn2c1-c1nc(CNC(=O)C2CC2)c2c(n1)NC(=O)C2(C)C [Example 66]	3
4. Cc1nc2c(OCc3c(F)cccc3F)cc(Cl)cn2c1-c1nc(N)c2c(n1)NC(=O)C2(C)C [Example 67]	0.03

---

pIC50: −log10 of the molar value. Structures can show the parent of a compound that is named as a salt.
System: human phosphodiesterase 5 (PDE 5) (Homo sapiens, UniProt O76074) | Read-out: pIC50
Parameter measured: pIC50

1. Cc1nc2c(OCc3c(F)ccc(F)c3F)cccn2c1-c1nc2c(c(C(=O)N3CCN(C)CC3)n1)C(C)(C)C(=O)N2 [Example 60, trifluoroacetate]	6.38
2. CCCC(C)(N)CNc1nc(-c2c(C)nc3c(OCc4c(F)cccc4F)cccn23)nc2c1C(C)(C)C(=O)N2 (racemic) [Example 13]	7.92
3. Cc1nc2c(OCc3c(F)ccc(F)c3F)cccn2c1-c1nc(N)c2c(n1)NC(=O)C2(C)C [Example 9]	7.77
4. Cc1nc2c(OCc3c(F)cccc3F)cccn2c1-c1nc2c(c(C(=O)O)n1)C(C)(C)C(=O)N2 [Example 51]	6.37

---

- System: UniProt:O76074
Counter-ions that a name gives are not always drawn.
Binarize IC50 at 30 nM; below is true (1), at or above is false (0).

1) Cc1nc2c(OCc3c(F)cccc3F)cccn2c1-c1nc(NCC(C)(N)C(F)F)c2c(n1)NC(=O)C2(C)C (racemic)	true (1)
2) Cc1nc2c(OCc3c(F)cccc3F)cccn2c1-c1nc(NCC(C)(C)N)c2c(n1)NC(=O)C2(C)C(F)(F)F (racemic)	true (1)
3) COCC(C)(N)CNc1nc(-c2c(C)nc3c(OCc4c(F)ccc(F)c4F)cccn23)nc2c1C(C)(C)C(=O)N2 (racemic) [Example 35, formate]	false (0)
4) Cc1nc2c(OCc3c(F)cccc3F)cccn2c1-c1nc2c(c(N3C[C@H]4C[C@@]4(N)C3)n1)C(C)(C)C(=O)N2 (relative stereo)	true (1)
5) Cc1nc2c(OCc3c(F)cccc3F)cccn2c1-c1nc(O)c2c(n1)NC(=O)C2(C)C(F)(F)F (racemic) [Example 8, trifluoroacetate]	false (0)
6) Cc1nc2c(OCc3c(F)ccc(F)c3F)cccn2c1-c1ncc2c(n1)NC(=O)C2(C)C [Example 75, formate]	false (0)
7) Cc1nc2c(OCc3c(F)cccc3F)cccn2c1-c1nc(NCC(N)C(F)(F)C(F)F)c2c(n1)NC(=O)C2(C)C (racemic)	true (1)
8) Cc1nc2c(OCc3c(F)cccc3F)cccn2c1-c1nc2c(c(C(N)=O)n1)C(C)(C)C(=O)N2 [Example 50, hydrochloride]	true (1)
9) Cc1nc2c(OCc3c(F)cccc3F)cccn2c1-c1nc(O)c2c(n1)NC(=O)C2(C)C [Example 5, trifluoroacetate]	false (0)
10) Cc1nc2c(OCc3c(F)ccc(F)c3F)cccn2c1-c1nc(O)c2c(n1)NC(=O)C2(C)C	false (0)
11) Cc1nc2c(OCc3c(F)cccc3F)cccn2c1-c1nc(CNC(=O)C2CC2)c2c(n1)NC(=O)C2(C)C	false (0)
